Recorded values, source PubChem BioAssay (NCI).

Assay: NCI Yeast Anticancer Drug Screen. Data for the mlh1 rad18 strain (AID 175)
Conditions: S. cerevisiae mlh1 rad18 strain growth inhibition; at 50.0 µM
This is part of a sample that, as a whole, favours compounds with a hit. Of some 79,000 tested, about 15% had one in any assay. Active and inactive are the calls of the source. No stated cut-off is given here; in the data, active means growth inhibition above about 70%; inactive means the rest.
Choose the fitting class; nothing outside active, inactive is accepted.

Ask: Could you kindly confirm the outcome this assay logged for CC(C#N)Nc1ccc(Oc2ccc(C(C)(C)c3ccc(Oc4ccc(NC(C)C#N)cc4)cc3)cc2)cc1 (configuration not stated) ?
Reply: inactive

Ask: Record: C[N+]1(C)CCCC(CN2c3ccccc3Sc3ccccc32)C1 (configuration not stated)
Reply: inactive

Ask: Input `O=C1c2ccccc2C(=O)c2[nH]ncc21`
Reply: inactive

Ask: O=C(Cc1ccccc1)N/N=C(/c1nc2ccc([N+](=O)[O-])cc2[nH]c1=O)C(O)c1ccco1 (configuration not stated) , same question.
Reply: inactive

Ask: Try the compound `CN(C)c1ccc(/C=C2N=C(/C=C\c3ccccc3)OC\2=O)cc1`
Reply: inactive

Ask: What do we get for `CC[Si](CC)(CC)[Si](c1ccccc1)(c1ccccc1)c1ccccc1` ?
Reply: inactive

Ask: Thanks! And `Cc1cc(N(CCOS(C)(=O)=O)CCOS(C)(=O)=O)ccc1C=Nc1ccc(C(=O)O)c(O)c1` ?
Reply: active

Ask: # iterate: `Clc1ccc(OCc2nnc3n2N=C(c2ccccc2)CS3)cc1`
Reply: inactive

Ask: Repeat for the following compound: `CCCCOCCOC(=O)Nc1cccc(Cl)c1`
Reply: inactive

Ask: Request: `Cc1nc[nH]c1[N+](=O)[O-]`
Reply: inactive

Ask: And the next one, CC(C)(CO)NCC(O)CS(=O)(=O)O (configuration not stated) ?
Reply: inactive

Ask: Param item: CC1(C)OC2COC3(CO)OC(C)(C)OC3C2O1 (configuration not stated)
Reply: inactive

Ask: Also CC1=NC(=O)C(C)(c2ccccc2)N1CCc1ccccc1 (configuration not stated) ?
Reply: inactive

Ask: Next: `C=CCCCCCCCCC(=O)OC1CCCCC1`
Reply: inactive

Ask: What do you get for `NC(=O)N/N=C/c1cccc([N+](=O)[O-])c1` ?
Reply: inactive

Ask: Next compound: CN(C)c1ccn(C2OC(CO)C(O)C2SC(C)(C)C)c(=O)n1 (configuration not stated)
Reply: inactive

Ask: Let us now turn to `COC(=O)c1c2c(cc3c1CCC3)CCC2`
Reply: inactive

Ask: Ok, now CC(=O)OC1COC(N2C(=O)C(=O)c3cc(Br)c([N+](=O)[O-])cc32)C(OC(C)=O)C1OC(C)=O (configuration not stated)
Reply: inactive

Ask: Next: `FC(F)(F)c1cccc(NC(=S)SCc2ccc(Cl)c(Cl)c2)c1`
Reply: active

Ask: And the next one, `CCOC(=O)c1cnc(N(C)C)nc1SC(=N)N` ?
Reply: inactive

Ask: Queued: `Nc1n[nH]c(CCCCc2nc(N)n[nH]2)n1`
Reply: inactive

Ask: Now this one: `CCC/C(Cl)=N\OC(=O)Nc1ccc(OC(F)(F)F)cc1`
Reply: inactive

Ask: Item: `CCOC(=O)C(C)(C)C(=O)Nc1ccccc1`
Reply: inactive

Ask: Field entry: `COc1ccc(NC(=O)NCc2ccc(C)c(C)c2)cc1`
Reply: inactive

Ask: Do the same for `COc1ccc(C(C)=O)cc1CO/N=C1\CSCc2ccccc21` please
Reply: inactive

Ask: CC(=O)O[C@@H]1[C@@H](C)[C@]2(CC(c3ccoc3)OC2O)C2CCC3O[C@]3(C)[C@]2(C)[C@@H]1OC(C)=O (some centres not stated) , same question.
Reply: inactive

Ask: Cool, now `O=S(=O)([O-])c1ccc2c[n+]3ccccc3cc2c1`
Reply: inactive

Ask: Next up: `COC(=O)CCC(=O)NC1=C(NCc2ccccc2)C(=O)c2ccccc2C1=O`
Reply: inactive

Ask: Follow-up entry: CCOc1c(OC)cc(C2c3cc4c(c(OCC)c3CC3COC(=O)C32)OCO4)cc1OC (configuration not stated)
Reply: inactive

Ask: CC(C)N(CC(c1ccccc1)C(C)(O)c1ccccc1)C(C)C (configuration not stated) , same question.
Reply: inactive

Ask: Also check `CN(C)c1ccc(/C=C/c2ccccc2)cc1`
Reply: inactive

Ask: // query: `CC(=O)CC(=O)C(F)(F)F`
Reply: inactive

Ask: Same again, this time with `O=C(NNC1=NCCN1Cc1ccccc1)c1cccc(Cl)c1`
Reply: inactive

Ask: Entry to check: `CCOC(=O)/C=C/n1c2ccccc2c(=O)c2cc(OC)ccc21`
Reply: inactive

Ask: Try this compound too: `O=[N+]([O-])c1cc2no[n+]([O-])c2cc1N1CCOCC1`
Reply: active

Ask: Let us now turn to `C=C(COC(=O)C(C)C)[C@H]1Oc2ccc(C(C)=O)cc2[C@@H]1OC(=O)C(C)C`
Reply: inactive

Ask: # repeat for `O=S(O)c1cc(Cl)c(O)c(Cl)c1`
Reply: inactive

Ask: Another compound: `Cc1nc(N)c(N2CCN(CN)CC2)c(=O)[nH]1`
Reply: inactive

Ask: Subsequent entry: `CN(C)Cc1ccc(-c2cc3onc(-c4ccccc4)c3c(=O)n2C)cc1`
Reply: inactive

Ask: Same question for `CN(C)C=Nc1c2c(nc3ccccc13)CCCC2` please.
Reply: inactive

Ask: Query `CC(=O)Nc1cccc(OCOc2ccc([N+](=O)[O-])cc2)c1` next
Reply: inactive

Ask: Then N=S(c1ccccc1)c1ccccc1[N+](=O)[O-] (configuration not stated) ?
Reply: inactive

Ask: And the next one, `BrCCCCCCCCCBr` ?
Reply: inactive

Ask: Here is the next compound: `CC(/C=C/c1ccccc1)=N\N=C(C)\C=C\c1ccccc1`
Reply: inactive

Ask: And O=C(Nc1ccccc1)OC1C=CC2CCC1C2 (configuration not stated) ?
Reply: inactive

Ask: Next compound up: `Cn1c(=O)c2c(ncn2CN2CCN(Cn3cnc4c3c(=O)n(C)c(=O)n4C)CC2)n(C)c1=O`
Reply: inactive

Ask: // same read-out, input: `O=C(/C=N/O)Nc1ccccc1I`
Reply: inactive
